- ASSAYED_TARGET: Jak2 (UniProt O60674)
- Sequence (O60674 whole entry, looked up): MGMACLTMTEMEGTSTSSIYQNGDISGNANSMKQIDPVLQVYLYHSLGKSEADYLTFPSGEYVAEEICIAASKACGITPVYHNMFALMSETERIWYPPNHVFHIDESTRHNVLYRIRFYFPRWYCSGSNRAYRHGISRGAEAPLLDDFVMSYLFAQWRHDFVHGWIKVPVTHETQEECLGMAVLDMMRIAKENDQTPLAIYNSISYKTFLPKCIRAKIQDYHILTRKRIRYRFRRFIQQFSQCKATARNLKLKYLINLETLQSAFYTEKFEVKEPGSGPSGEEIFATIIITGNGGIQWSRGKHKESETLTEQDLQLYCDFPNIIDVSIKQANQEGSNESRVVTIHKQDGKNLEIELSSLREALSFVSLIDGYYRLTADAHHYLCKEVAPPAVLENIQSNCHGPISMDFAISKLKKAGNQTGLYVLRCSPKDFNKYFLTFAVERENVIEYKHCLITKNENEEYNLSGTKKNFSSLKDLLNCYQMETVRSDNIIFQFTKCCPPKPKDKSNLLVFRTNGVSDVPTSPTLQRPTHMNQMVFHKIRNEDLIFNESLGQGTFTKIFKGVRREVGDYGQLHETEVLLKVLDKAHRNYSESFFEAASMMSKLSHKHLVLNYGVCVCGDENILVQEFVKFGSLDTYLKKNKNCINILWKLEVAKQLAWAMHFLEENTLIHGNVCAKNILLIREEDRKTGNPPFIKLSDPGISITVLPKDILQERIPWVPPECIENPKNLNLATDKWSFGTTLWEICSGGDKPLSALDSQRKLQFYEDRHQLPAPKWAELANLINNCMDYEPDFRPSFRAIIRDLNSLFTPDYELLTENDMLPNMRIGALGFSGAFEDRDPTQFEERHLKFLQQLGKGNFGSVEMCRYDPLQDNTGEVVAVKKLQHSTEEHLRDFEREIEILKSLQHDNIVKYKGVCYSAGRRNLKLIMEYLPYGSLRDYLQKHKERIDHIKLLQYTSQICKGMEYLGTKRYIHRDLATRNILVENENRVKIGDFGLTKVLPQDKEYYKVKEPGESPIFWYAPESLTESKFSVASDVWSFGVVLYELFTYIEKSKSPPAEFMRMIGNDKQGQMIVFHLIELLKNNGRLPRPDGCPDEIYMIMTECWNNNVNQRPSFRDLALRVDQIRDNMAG
- EXPERIMENTAL_DETAILS: phosphorylation enrichment, bacterial display (enrichment ratio); higher = better substrate or ligand; peptides without Tyr show the background
ENDPOINT_NAME: phosphorylation enrichment
Respond numerically, and do not add a unit to the figure.

# SEQ, phosphorylation enrichment
measured = [
    ("SPPPAYTPMSG [ERBB4_Y1056]", 0.503),
    ("LEQDEYALHSH [HADHB_Y244_R247H]", 1.2),
    ("CLNAIYQNNLT [GSR_Y158_R153C]", 0.744),
    ("EEKKKYFDTKI [CASP5_Y103_YF]", 0.665),
    ("LFIGQYSGKKE [L1CAM_Y1229_S1224L]", 1.77),
]

According to the records, this sequence FASTGYGIAIQ [GRIN2B_Y762] displays phosphorylation enrichment of 0.605

Noted for QDLLLYQTHSE [PKHD1_Y255_F253L] : its phosphorylation enrichment reads 1.61

Sure, the documented phosphorylation enrichment for PVDTFYDSTRG [DYNC2H1_Y2231_M2227V_YF] is 0.939

Lab note: RGKDSYETSKL [SPP1_Y225_Q229K] gave phosphorylation enrichment of 1.07

Quick note, phosphorylation enrichment for HYEDGYPGGSD [CTNND1_Y221] landed at 1.44

====

- System: Fer (mouse)
- EXPERIMENTAL_DETAILS: phosphorylation enrichment, bacterial display (enrichment ratio); higher = better substrate or ligand; peptides without Tyr show the background
Field: class. Source value: phosphorylation enrichment. Ranges: low bracket (below 0.5), middle bracket (0.5 to below 0.7), high bracket (0.7 or more)

Worked examples follow.
# SEQ, ASSAYED_TARGET, CATEGORY_LABEL
rows = [
    ("LSVEIYDRREF [ITGB7_Y753_YF]", "Fer (mouse)", "middle bracket"),
    ("GHLFAYDWIRI [BEST1_Y227_S231R_YF]", "Fer (mouse)", "high bracket"),
    ("VDTFWYKFLKP [EPM2A_Y86_R91P]", "Fer (mouse)", "middle bracket"),
]

Lookup: Which band does GRPLSYWLTGC [LYZL6_Y140_F139S] fall in?
Found: middle bracket

Lookup: Please indicate the class for QTEAEYRFIFM [PTPN11_Y511_Q510E_YF] based on its phosphorylation enrichment.
Found: high bracket

Lookup: Input ETEMLYGSAPR [PRC1_Y464] ; output its category
Found: high bracket

Lookup: Category lookup for the sequence CSEEMYRLMLQ [RET_Y981]
Found: middle bracket

Lookup: Which phosphorylation enrichment band matches NHFKRYNLCAE [PTEN_Y68_I67R_YF] ?
Found: low bracket

Lookup: Please report the category associated with AQAGEYGAEAL [HBA1_Y25_H21Q] , nothing else.
Found: low bracket

====

- ASSAYED_TARGET: c-Src SH2;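 further: peptide library displayed on the E. coli surface as eCPX fusions, selected cells deep-sequenced, score is each peptide's frequency after selection divided by its frequency in the input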
- EXPERIMENTAL_DETAILS: SH2 binding enrichment of the phosphorylated peptide, bacterial display (enrichment ratio); higher = better substrate or ligand; peptides without Tyr show the background
Let's look at some sequences and their measured SH2 binding enrichment.
// no unit, no text: just the number

# SEQ, NUMERIC_RESULT
measured = [
    ("GRPLFYWLTGC [LYZL6_Y140]", 0.527),
    ("FGLQAYTEVKT [ALDH2_Y502_YF]", 7.17),
    ("VDTRAYLTSAT [MT-CO1_Y304_F305L]", 0.439),
]

Query sequence follows.
Sample KVVQEYERVII [NPHS2_Y131] ; SH2 binding enrichment observed: 0.564
